Origin of measurements: patent US8865725B2

Consider the following compounds and their measured Emax readings.
molecular target: human mGluR5a receptor (Homo sapiens); test: Cell-based functional assay (Ca2+ mobilization, FDSS) for positive allosteric modulation of mGluR5; conditions: maximum % effect in concentration-response curve, as percent of response to maximally effective glutamate concentration
experimental-endpoint: Emax (%)

1) Cc1cc(-n2ccc3nc(COc4ccccc4)cn3c2=O)ncc1F	60
2) O=c1n(-c2ccc(F)cc2)ccc2nc(COc3ccccn3)cn12	66
3) Cc1nc(-n2ccc3nc(COc4ccccc4)cn3c2=O)ccc1F	70
4) CN(C)c1cccc(-n2ccc3nc(COc4ccccc4)cn3c2=O)n1	64
5) Cc1cn(-c2ccc(F)cc2)c(=O)n2cc(COc3ccccc3)nc12	16
6) N#Cc1cccc(OCc2cn3c(=O)n(-c4ccc(F)cc4)ccc3n2)c1	40
7) O=C1N(c2ccc(F)cn2)CCc2nc(COc3ccccc3)cn21	64
8) O=c1n(-c2ccc(F)cc2)ccc2nc(COc3cccnc3)cn12	59
9) Cc1cccc(OCc2cn3c(n2)CCN(c2ccc(F)cc2)C3=O)c1	48

* * *

Consider the following compounds and their measured melting point readings.
experimental-endpoint: melting point (°C)

1. O=C1N(c2ccc(F)cn2)CCc2nc(COc3ccccc3)cn21	135
2. O=C1N(c2ccc(F)cc2)CCc2nc(COc3ccccc3)c(Cl)n21	200.1
3. O=c1n(-c2ccc(F)cc2)ccc2nc(COc3ccccc3)cn12	142.3
4. O=c1n(-c2ccc(F)cc2)ccc2nc(COc3ccccn3)cn12	282.3
5. O=c1n(-c2cccc(F)c2)ccc2nc(COc3ccccc3)cn12	123.4
6. COc1nccc(-n2ccc3nc(COc4ccccc4)cn3c2=O)n1	171.2
7. O=C1N(c2ccc(F)cc2)CCc2nc(COc3cccc(F)c3)cn21	141.1

* * *

biological target: UniProt:P41594; assay: Cell-based functional assay (Ca2+ mobilization, FDSS) for positive allosteric modulation of mGluR5; settings: HEK cells transfected with human mGluR5a (H10H or H12H), potentiation in presence of EC20 glutamate; read-out: EC50
pEC50: −log10 of the molar value.
Consider the following compounds and their measured pEC50 readings.
experimental-endpoint: pEC50

1) Cc1nc(N2CCc3nc(COc4ccccc4)cn3C2=O)ccc1F	6.78
2) Cc1cc(N2CCc3nc(COc4ccccc4)cn3C2=O)ncc1F	6.45
3) O=c1n(-c2cccc(C(F)(F)F)c2)ccc2nc(COc3ccc(F)cc3)cn12	5.89
4) O=C1N(c2ccc(F)cn2)CCc2nc(COc3ccccc3)cn21	6.41
5) O=C1N(c2ccc(F)cc2)CCc2nc(COc3ccc(F)cc3)cn21	6.73

* * *

target: UniProt:P41594; assay: Cell-based functional assay (Ca2+ mobilization, FDSS) for positive allosteric modulation of mGluR5; details: HEK cells transfected with human mGluR5a (H10H or H12H), potentiation in presence of EC20 glutamate; concentration in mol/L; read-out: pEC50 (converted)
experimental-endpoint: EC50 (nM)

1) O=c1n(-c2ccc(F)cc2)cc(F)c2nc(COc3ccccc3)cn12	85.1
2) O=C1N(c2ccc(F)c(F)c2)CCc2nc(COc3ccccc3)cn21	102
3) O=C1N(c2ccc(F)cc2)CCc2nc(COc3ccccc3)cn21	102
4) O=c1n(-c2ccc(F)cc2)ccc2nc(COc3ccc(F)cc3)cn12	309
5) O=c1n(-c2ccc(F)cc2)ccc2nc(COc3ccccn3)cn12	2140

* * *

experimental-endpoint: melting point (°C)

1) O=c1n(-c2ccc(F)cc2)ccc2nc(COc3ccccc3)c(Cl)n12	170.3
2) Cc1nc(-n2ccc3nc(COc4ccccc4)cn3c2=O)ccc1F	199.5
3) Cc1cccc(OCc2cn3c(n2)CCN(c2ccc(F)cc2)C3=O)c1	169.3
4) O=C1N(c2ccc(F)cc2)CCc2nc(COc3ccc(F)cc3)cn21	182.3
5) O=c1n(-c2cccc(C(F)(F)F)c2)ccc2nc(COc3ccc(Cl)cc3)cn12	141.8
6) Cc1ccc(-n2ccc3nc(COc4ccccc4)cn3c2=O)nc1	209.4
7) Cc1cc2nc(COc3ccccc3)cn2c(=O)n1-c1ccc(F)cc1	143.6
8) Cc1c(COc2ccccc2)nc2n1C(=O)N(c1ccc(F)cc1)CC2	160.4

* * *

biological target: human mGluR5a receptor (Homo sapiens, UniProt P41594); experiment: Cell-based functional assay (Ca2+ mobilization, FDSS) for positive allosteric modulation of mGluR5; conditions: maximum % effect in concentration-response curve, as percent of response to maximally effective glutamate concentration
Sequence (P41594 21-1180 isoform P41594-2 limits assumed): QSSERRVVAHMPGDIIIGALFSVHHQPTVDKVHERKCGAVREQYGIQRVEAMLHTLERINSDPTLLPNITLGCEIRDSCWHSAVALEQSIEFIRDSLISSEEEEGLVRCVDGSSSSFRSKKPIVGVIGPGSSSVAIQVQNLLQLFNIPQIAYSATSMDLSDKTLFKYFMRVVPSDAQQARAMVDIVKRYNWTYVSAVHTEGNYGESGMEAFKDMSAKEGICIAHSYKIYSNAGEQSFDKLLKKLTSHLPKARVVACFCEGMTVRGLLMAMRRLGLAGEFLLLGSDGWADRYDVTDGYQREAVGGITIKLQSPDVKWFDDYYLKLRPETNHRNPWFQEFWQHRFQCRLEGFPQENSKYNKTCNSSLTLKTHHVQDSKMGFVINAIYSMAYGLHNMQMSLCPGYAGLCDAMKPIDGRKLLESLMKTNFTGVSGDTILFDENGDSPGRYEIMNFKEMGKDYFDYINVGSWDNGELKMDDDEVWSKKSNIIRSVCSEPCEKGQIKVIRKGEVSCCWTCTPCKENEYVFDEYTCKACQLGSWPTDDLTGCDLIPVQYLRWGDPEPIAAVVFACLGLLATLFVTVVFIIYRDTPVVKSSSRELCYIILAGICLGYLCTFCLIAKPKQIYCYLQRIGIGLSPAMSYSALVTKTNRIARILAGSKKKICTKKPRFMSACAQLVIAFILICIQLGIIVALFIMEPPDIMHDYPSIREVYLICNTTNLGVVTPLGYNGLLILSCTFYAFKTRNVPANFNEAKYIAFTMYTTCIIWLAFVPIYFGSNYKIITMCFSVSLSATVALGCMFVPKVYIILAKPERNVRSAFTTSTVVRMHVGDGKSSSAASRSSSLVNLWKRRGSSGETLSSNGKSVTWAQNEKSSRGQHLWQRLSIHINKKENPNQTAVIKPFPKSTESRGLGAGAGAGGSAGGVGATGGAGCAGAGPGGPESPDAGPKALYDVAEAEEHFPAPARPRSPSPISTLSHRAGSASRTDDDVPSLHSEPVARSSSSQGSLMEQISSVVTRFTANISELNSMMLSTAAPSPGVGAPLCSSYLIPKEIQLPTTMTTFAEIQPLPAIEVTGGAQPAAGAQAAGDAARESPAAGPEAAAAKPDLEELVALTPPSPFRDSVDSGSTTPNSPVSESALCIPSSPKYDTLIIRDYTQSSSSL
Consider the following compounds and their measured Emax readings.
experimental-endpoint: Emax (%)

1) O=c1n(-c2cccc(F)c2)ccc2nc(COc3ccccc3)cn12	68
2) O=C1N(c2ccc(F)cc2)CCc2nc(COc3ccccc3)cn21	71
3) Cc1nc(N2CCc3nc(COc4ccccc4)cn3C2=O)ccc1F	72
4) O=C1N(c2cccc(F)c2)CCc2nc(COc3ccccc3)cn21	70
5) O=C1N(c2ccc(F)cc2)CCc2nc(COc3ccccc3)c(Cl)n21	17
6) Cc1ccc(N2CCc3nc(COc4ccccc4)cn3C2=O)nc1	63
7) O=c1n(-c2ccc(F)cc2)ccc2nc(COc3cccc(F)c3)cn12	73
8) O=C1N(c2ccc(F)cc2)CCc2nc(COc3cccc(F)c3)cn21	73
9) O=c1[nH]ccc2nc(COc3ccccc3)cn12	19

* * *

target: human mGluR5a receptor (Homo sapiens, UniProt P41594); experiment: Cell-based functional assay (Ca2+ mobilization, FDSS) for positive allosteric modulation of mGluR5; conditions: HEK cells transfected with human mGluR5a (H10H or H12H), potentiation in presence of EC20 glutamate; read-out: EC50
Binary label based on EC50 with cut-off 200 nM: below gives y, not below gives n.

1. O=C1N(c2ccc(F)c(F)c2)CCc2nc(COc3ccccc3)cn21	y
2. O=c1n(-c2ccc(F)cc2)ccc2nc(COc3ccccc3)cn12	n
3. O=C1N(c2ccc(F)cc2)CCc2nc(COc3ccccc3)c(Cl)n21	n
4. O=c1n(-c2cccc(C(F)(F)F)c2)ccc2nc(COc3ccc(Cl)cc3)cn12	n
5. Cc1nc(-n2ccc3nc(COc4ccccc4)cn3c2=O)ccc1F	n
6. COc1nccc(-n2ccc3nc(COc4ccccc4)cn3c2=O)n1	n
7. Cc1cccc(OCc2cn3c(n2)CCN(c2ccc(F)cc2)C3=O)c1	y
8. O=C1N(c2ccc(F)cc2)CCc2nc(COc3ccccc3)cn21	y
9. O=c1n(-c2ccc(F)cc2)ccc2nc(COc3ccc(F)cc3)cn12	n

* * *

Consider the following compounds and their measured Emax readings.
target: human mGluR5a receptor (Homo sapiens); experiment: Cell-based functional assay (Ca2+ mobilization, FDSS) for positive allosteric modulation of mGluR5; conditions: maximum % effect in concentration-response curve, as percent of response to maximally effective glutamate concentration
experimental-endpoint: Emax (%)

1) O=C1N(c2ccc(F)cc2)CCc2nc(COc3ccc(F)cc3)cn21	68
2) COc1nccc(-n2ccc3nc(COc4ccccc4)cn3c2=O)n1	46
3) O=C1N(c2ccc(F)c(F)c2)CCc2nc(COc3ccccc3)cn21	75
4) O=c1n(-c2ccc(F)cc2)ccc2nc(COc3ccccc3)cn12	79
5) O=c1n(-c2ccc(F)c(F)c2)ccc2nc(COc3ccccc3)cn12	79
6) Cn1ccc2nc(COc3ccccc3)cn2c1=O	69
7) O=c1n(-c2ccc(F)cc2)ccc2nc(COc3ccc(F)cc3)cn12	72
8) O=c1n(Cc2ccccc2)ccc2nc(COc3ccccc3)cn12	80
9) Cc1ccc(-n2ccc3nc(COc4ccccc4)cn3c2=O)nc1	59
10) O=c1n(-c2cccc(C(F)(F)F)c2)ccc2nc(COc3ccc(F)cc3)cn12	50
11) O=c1n(-c2ccc(F)cc2)ccc2nc(COc3ccccc3)c(Cl)n12	17

* * *

biological target: human mGluR5a receptor (Homo sapiens, UniProt P41594); test: Cell-based functional assay (Ca2+ mobilization, FDSS) for positive allosteric modulation of mGluR5; conditions: pEC50, HEK cells transfected with human mGluR5a (H10H or H12H), potentiation in presence of EC20 glutamate; concentration in mol/L
Consider the following compounds and their measured EC50 readings.
experimental-endpoint: EC50 (µM)

1. O=c1n(-c2cccc(F)c2)ccc2nc(COc3ccccc3)cn12	0.513
2. O=C1N(c2ccc(F)cc2)CCc2nc(COc3cccc(F)c3)cn21	0.0676
3. Cc1nc(N2CCc3nc(COc4ccccc4)cn3C2=O)ccc1F	0.178

* * *

experimental-endpoint: melting point (°C)

1) Cc1cc(-n2ccc3nc(COc4ccccc4)cn3c2=O)ncc1F	203.1
2) O=C1N(c2ccc(F)c(F)c2)CCc2nc(COc3ccccc3)cn21	165.4
3) O=c1n(Cc2ccccc2)ccc2nc(COc3ccccc3)cn12	122.3
4) O=c1n(-c2ccc(F)c(F)c2)ccc2nc(COc3ccccc3)cn12	296.6
5) Cn1ccc2nc(COc3ccccc3)cn2c1=O	130.9
6) N#Cc1ccc(OCc2cn3c(=O)n(-c4cccc(C(F)(F)F)c4)ccc3n2)cc1	189.4
7) O=c1n(CC2CC2)ccc2nc(COc3ccccc3)cn12	102.1
8) O=c1n(-c2ccc(F)cc2)cc(F)c2nc(COc3ccccc3)cn12	110.7
9) Cc1ccnc(-n2ccc3nc(COc4ccccc4)cn3c2=O)c1	239.4
10) Cc1cn(-c2ccc(F)cc2)c(=O)n2cc(COc3ccccc3)nc12	146.9
11) O=C1N(c2ccc(F)cc2)CCc2nc(COc3ccccc3)cn21	195.2
12) O=c1n(-c2ccc(F)cc2)ccc2nc(COc3cccc(F)c3)cn12	141.1
13) N#Cc1cccc(OCc2cn3c(=O)n(-c4ccc(F)cc4)ccc3n2)c1	165
14) O=c1n(-c2ccc(F)cc2)ccc2nc(COc3ccc(F)cc3)cn12	163.4
15) CN(C)c1cccc(-n2ccc3nc(COc4ccccc4)cn3c2=O)n1	136
16) Cc1cc(N2CCc3nc(COc4ccccc4)cn3C2=O)ncc1F	196.5
